- assayedSystem: T1, Aβ40 (Homo sapiens, UniProt P05067)
- T1 construct: purchased AnaSpec; host or cells: synthetic peptide
- T1 sequence (P05067 672-711 limits assumed): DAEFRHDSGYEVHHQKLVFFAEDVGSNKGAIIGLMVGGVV
- protocolDetails: ThT fluorescence assay of Aβ monomer aggregation
- Format: biochemical
- studyConditions: 100 µM compound, 40 μM Aβ40 monomer; T2/T1 relative to control; mean ± SEM, n = 3–5; N.E. = not significantly different from control samples
measure: Lag Time Extension (Fold Increase)

Known Lag Time Extension (Fold Increase) results, listed for orientation:
Query string: What value of Lag Time Extension (Fold Increase) has been reported for the following compound? CC1CC(=O)N(CCSCc2ccc(CN(C)C)o2)C1=O (centres unmarked)
Result string: 2.8 ± 0.6 fold

Query string: What value of Lag Time Extension (Fold Increase) has been reported for the following compound? O=C1c2cccc3cc([N+](=O)[O-])cc(c23)C(=O)N1CCc1ccco1
Result string: 1.76 ± 0.61 fold

Query string: What value of Lag Time Extension (Fold Increase) has been reported for the following compound? CN(C)Cc1ccc(CSCCN2C(=O)c3cccc4c(Cl)ccc(c34)C2=O)o1
Result string: N.E.

Query string: What value of Lag Time Extension (Fold Increase) has been reported for the following compound? CN(C)Cc1ccc(CCN2C(=O)c3cccc4cc([N+](=O)[O-])cc(c34)C2=O)o1
Result string: 2.25 ± 0.25 fold

Next:
Query string: What value of Lag Time Extension (Fold Increase) has been reported for the following compound? CN(C)Cc1ccc(C[S+]([O-])CCN2C(=O)c3cccc4cccc(c34)C2=O)o1 (centres unmarked)
Result string: N.E.

Query string: What value of Lag Time Extension (Fold Increase) has been reported for the following compound? CN(C)Cc1nc(CSCCN2C(=O)c3cccc4cc([N+](=O)[O-])cc(c34)C2=O)cs1
Result string: N.E.

Query string: What value of Lag Time Extension (Fold Increase) has been reported for the following compound? CN(C)Cc1nc(CSCCN2C(=O)c3cccc4cccc(c34)C2=O)cs1
Result string: N.E.

Query string: What value of Lag Time Extension (Fold Increase) has been reported for the following compound? CN(C)Cc1ccc(CSCCN2C(=O)c3cccc4cc([N+](=O)[O-])cc(c34)C2=O)o1
Result string: N.E.

Hello, the source for this data is paper PMC8003314, in case you need it.
